Data provenance: ChEMBL document CHEMBL3425484

In this section we review reported log10 CC50 at 24 h values for a set of compounds.
# ASSAY METHOD TEXT: Cytotoxicity against african green monkey Vero cells assessed as inhibition of cell growth after 24 hrs by CPE assay
# Format: cell-based
# TEST CONDITIONS: chlorocebus sabaeus, read-out: TC50
READOUT TYPE: log10 CC50 at 24 h (log10 of the value in µM)

{"SMILES": "O=S(=O)(c1ccc(C(F)(F)F)cc1)N1C[C@@H]2CCCN3CCC[C@@H]([C@H]23)[C@H]1/C=C\\CCO", "log10 CC50 at 24 h": 1.97}
{"SMILES": "COC(=O)CCC[C@@H]1[C@H]2CCCN3CCC[C@@H](CN1S(=O)(=O)c1ccc(C(F)(F)F)cc1)[C@@H]23", "log10 CC50 at 24 h": 1.87}
{"SMILES": "COC(=O)C/C=C\\[C@@H]1[C@H]2CCCN3CCC[C@@H](CN1S(=O)(=O)c1ccc(C(F)(F)F)cc1)[C@@H]23", "log10 CC50 at 24 h": 1.74}
{"SMILES": "O=[N+]([O-])c1ccccc1S(=O)(=O)N1C[C@@H]2CCCN3CCC[C@@H]([C@H]23)[C@H]1CCCCO", "log10 CC50 at 24 h": 2.39}
{"SMILES": "COC(=O)CCC[C@@H]1[C@H]2CCCN3CCC[C@@H](CN1S(=O)(=O)c1cccc([N+](=O)[O-])c1)[C@@H]23", "log10 CC50 at 24 h": 1.84}
{"SMILES": "O=C(O)C/C=C/[C@@H]1[C@H]2CCCN3CCC[C@@H](CN1S(=O)(=O)c1ccccc1C(F)(F)F)[C@@H]23", "log10 CC50 at 24 h": 2.59}
{"SMILES": "NC(=O)c1ncn([C@@H]2O[C@H](CO)[C@@H](O)[C@H]2O)n1", "log10 CC50 at 24 h": 3.91}
{"SMILES": "O=C(O)C/C=C/[C@@H]1[C@H]2CCCN3CCC[C@@H](CN1S(=O)(=O)c1ccc(C(F)(F)F)cc1)[C@@H]23", "log10 CC50 at 24 h": 3.17}
{"SMILES": "N#Cc1ccccc1S(=O)(=O)N1C[C@@H]2CCCN3CCC[C@@H]([C@H]23)[C@H]1/C=C\\CC(=O)O", "log10 CC50 at 24 h": 2.63}
{"SMILES": "COC(=O)C/C=C\\[C@@H]1[C@H]2CCCN3CCC[C@@H](CN1S(=O)(=O)c1cc(Br)c(Br)s1)[C@@H]23", "log10 CC50 at 24 h": 1.32}
{"SMILES": "COC(=O)C/C=C\\[C@@H]1[C@H]2CCCN3CCC[C@@H](CN1S(=O)(=O)c1ccccc1[N+](=O)[O-])[C@@H]23", "log10 CC50 at 24 h": 2.68}
{"SMILES": "O=C(O)CCC[C@@H]1[C@H]2CCCN3CCC[C@@H](CN1S(=O)(=O)c1ccc(C(F)(F)F)cc1)[C@@H]23", "log10 CC50 at 24 h": 2.59}
{"SMILES": "COC(=O)C/C=C\\[C@@H]1[C@H]2CCCN3CCC[C@@H](CN1S(=O)(=O)c1ccccc1C#N)[C@@H]23", "log10 CC50 at 24 h": 2.46}
{"SMILES": "N#Cc1cccc(S(=O)(=O)N2C[C@@H]3CCCN4CCC[C@@H]([C@H]34)[C@H]2CCCCO)c1", "log10 CC50 at 24 h": 2.17}
{"SMILES": "O=C(O)C/C=C\\[C@@H]1[C@H]2CCCN3CCC[C@@H](CN1S(=O)(=O)c1ccc([N+](=O)[O-])cc1)[C@@H]23", "log10 CC50 at 24 h": 2.49}
{"SMILES": "O=[N+]([O-])c1ccc(S(=O)(=O)N2C[C@@H]3CCCN4CCC[C@@H]([C@H]34)[C@H]2/C=C\\CCO)cc1", "log10 CC50 at 24 h": 2.42}
{"SMILES": "N#Cc1ccccc1S(=O)(=O)N1C[C@@H]2CCCN3CCC[C@@H]([C@H]23)[C@H]1/C=C/CC(=O)O", "log10 CC50 at 24 h": 2.67}
{"SMILES": "O=C(O)C/C=C\\[C@@H]1[C@H]2CCCN3CCC[C@@H](CN1S(=O)(=O)c1ccccc1[N+](=O)[O-])[C@@H]23", "log10 CC50 at 24 h": 2.77}
{"SMILES": "N#Cc1ccc(S(=O)(=O)N2C[C@@H]3CCCN4CCC[C@@H]([C@H]34)[C@H]2/C=C\\CC(=O)O)cc1", "log10 CC50 at 24 h": 2.87}
{"SMILES": "COC(=O)C/C=C/[C@@H]1[C@H]2CCCN3CCC[C@@H](CN1S(=O)(=O)c1cccc(C#N)c1)[C@@H]23", "log10 CC50 at 24 h": 1.86}
{"SMILES": "O=C(O)CCC[C@@H]1[C@H]2CCCN3CCC[C@@H](CN1S(=O)(=O)c1ccccc1[N+](=O)[O-])[C@@H]23", "log10 CC50 at 24 h": 2.61}
{"SMILES": "N#Cc1cccc(S(=O)(=O)N2C[C@@H]3CCCN4CCC[C@@H]([C@H]34)[C@H]2/C=C/CC(=O)O)c1", "log10 CC50 at 24 h": 2.67}
{"SMILES": "COC(=O)C/C=C\\[C@@H]1[C@H]2CCCN3CCC[C@@H](CN1S(=O)(=O)c1ccc([N+](=O)[O-])cc1)[C@@H]23", "log10 CC50 at 24 h": 2.27}
{"SMILES": "N#Cc1cccc(S(=O)(=O)N2C[C@@H]3CCCN4CCC[C@@H]([C@H]34)[C@H]2/C=C\\CCO)c1", "log10 CC50 at 24 h": 2.17}
{"SMILES": "O=C(O)C/C=C\\[C@@H]1[C@H]2CCCN3CCC[C@@H](CN1S(=O)(=O)c1cc(Br)c(Br)s1)[C@@H]23", "log10 CC50 at 24 h": 2.28}
{"SMILES": "COC(=O)C/C=C/[C@@H]1[C@H]2CCCN3CCC[C@@H](CN1S(=O)(=O)c1ccccc1C(F)(F)F)[C@@H]23", "log10 CC50 at 24 h": 1.58}
{"SMILES": "N#Cc1cccc(S(=O)(=O)N2C[C@@H]3CCCN4CCC[C@@H]([C@H]34)[C@H]2/C=C\\CC(=O)O)c1", "log10 CC50 at 24 h": 2.87}
